Where do the numbers come from? From the NIST ThermoML archive (doi:10.1021/je034182z).

test: refractive index (Na D-line) (dimensionless); conditions: 298.15 K; 101.33 kPa; Liquid; Standard Abbe refractometry
Assignment: determine reported refractive index for the given compounds.
Would you mind answering with just the numeric figure?

Inquiry: Consider the compound Cc1cccc(C)c1 . State its measured refractive index.
Reply text: 1.4947

Inquiry: Consider the compound CCCCCC . State its measured refractive index.
Reply text: 1.3747

Inquiry: Consider the compound CCCCCCCC . State its measured refractive index.
Reply text: 1.3954

Inquiry: Consider the compound CCCCCCC . State its measured refractive index.
Reply text: 1.3854

Inquiry: Consider the compound C1CCOC1 [tetrahydrofuran] . State its measured refractive index.
Reply text: 1.4047

---

Assignment: determine reported mass density for the given compounds.
conditions: 298.15 K; 101.33 kPa; Liquid
Lab book: enter the figure in kg/m3, no units written.

Inquiry: Consider the compound CCCCCCC . State its measured mass density.
Reply text: 679.4

Inquiry: Consider the compound CCCCCCCC . State its measured mass density.
Reply text: 698.5

Inquiry: Consider the compound CCCCCC . State its measured mass density.
Reply text: 655.1

Inquiry: Consider the compound Cc1cccc(C)c1 . State its measured mass density.
Reply text: 860.3

Inquiry: Consider the compound C1CCOC1 [tetrahydrofuran] . State its measured mass density.
Reply text: 881.9
